B1: Ribonuclease, P00648 (parent)
chain: MMKMEGIALKKRLSWISVCLLVLVSAAGMLFSTAAKTETSSHKAHTEAQVINTFDGVADYLQTYHKLPDNYITKSEAQALGWVASKGNLADVAPGKSIGGDIFSNREGKLPGKSGRTWREADINYTSGFRNSDRILYSSDWLIYKTTDHYQTFTKIR

Variants of: B1
experimental.setup: Bacillus amyloliquefaciens; pH 6.3; 25 °C; Urea; Fluorescence; MES 1.00 M; NaCl 613 mM; reversible: yes; structure 1BNI; whole UniProt chain shown
The following variants are listed with their measured denaturant midpoint (higher = more stable) values.
Please respond with the number in M and leave the unit unwritten.

The following variants have reported results that may help.
>>> experimental_value("D55A")
4.12
>>> experimental_value("D55A D59A")
4.16

For "R157A" , what is its reported denaturant midpoint (higher = more stable)?
4.37

For D55A D59A R157A , what is its reported denaturant midpoint (higher = more stable)?
4.63

For "D59A" , what is its reported denaturant midpoint (higher = more stable)?
4.42

For D55A R157A , what is its reported denaturant midpoint (higher = more stable)?
4.36
